tested_system: GST-JAK2(808-1132) (Homo sapiens, UniProt O60674)
Construct: GST-JAK2(808-1132); purchased Invitrogen (Carlsbad, USA) #4288
Sequence (O60674 808-1132): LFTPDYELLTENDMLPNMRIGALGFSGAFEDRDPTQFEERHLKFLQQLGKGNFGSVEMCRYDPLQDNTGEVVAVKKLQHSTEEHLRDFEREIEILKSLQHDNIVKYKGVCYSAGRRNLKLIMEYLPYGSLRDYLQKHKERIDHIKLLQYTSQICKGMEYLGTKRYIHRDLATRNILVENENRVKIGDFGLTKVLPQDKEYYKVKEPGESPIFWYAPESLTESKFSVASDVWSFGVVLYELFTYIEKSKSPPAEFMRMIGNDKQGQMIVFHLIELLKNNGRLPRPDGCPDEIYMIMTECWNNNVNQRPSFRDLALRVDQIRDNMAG
method_summary: JAK2 kinase assay (Caliper mobility shift, LabChip 3000)
Assay type: biochemical
pIC50: −log10 of the molar value.

# molecule, inequality_operator, pIC50
records = [
    ("CC(C)(C)OC(=O)N1CCC(n2cc(Nc3ncc4ccn(-c5cc(F)c(CN6CCOCC6)c(F)c5)c4n3)cn2)CC1 [Example 320]", "=", 8.02),
    ("CC(O)c1ccc(-n2ccc3cnc(Nc4ccc(N5CCN(C)CC5)nc4)nc32)cc1 (stereo not shown) [Example 279]", "=", 8.40),
    ("Cc1ccc(Nc2ncc3ccn(-c4ccc(C(=O)N5CCOCC5)c(F)c4)c3n2)cc1CN1CCN(C)CC1 [Example 326]", ">", 8.52),
    ("Cc1ccc(Nc2ncc3ccn(-c4ccc(CC(=O)N5CCN(CCO)CC5)cc4)c3n2)cc1C [Example 212]", ">", 8.52),
]

---

System: JAK2-dependent nuclear translocation of STAT5-GFP in U-2 OS osteosarcoma cells
method_summary: STAT5 nuclear translocation assay (Cellomics), rhEpo stimulated U-2 OS STAT5-GFP cells
Assay type: cell-based
measurement_conditions: Homo sapiens, U2OS; STAT5 translocation pathway
measure_name: IC50 (nM)

# compound, tested_system, measure_name, recorded_measurement
measured = [
    ("Fc1cc(-n2ccc3cnc(Nc4ccc(CC5CCNCC5)cc4)nc32)cc(F)c1CN1CCOCC1 [Example 383]", "JAK2-dependent nuclear translocation of STAT5-GFP in U-2 OS osteosarcoma cells", "IC50", 6.1),
    ("Cc1ccc(Nc2ncc3ccn(-c4cc(F)c(CN5CCOCC5)c(F)c4)c3n2)cc1CN1CCC(O)C1 (racemic) [Example 411]", "JAK2-dependent nuclear translocation of STAT5-GFP in U-2 OS osteosarcoma cells", "IC50", 2.6),
    ("COc1cc(Nc2ncc3ccn(-c4cc(F)c(CN5CCOCC5)c(F)c4)c3n2)cnc1N1C[C@@H](C)N[C@@H](C)C1 [Example 497]", "JAK2-dependent nuclear translocation of STAT5-GFP in U-2 OS osteosarcoma cells", "IC50", 7.7),
    ("CN1CCOC[C@@H]1c1ccc(Nc2ncc3ccn(-c4cc(F)c(CN5CCOCC5)c(F)c4)c3n2)cc1 [Example 509]", "JAK2-dependent nuclear translocation of STAT5-GFP in U-2 OS osteosarcoma cells", "IC50", 43.1),
    ("Cc1ccc(Nc2ncc3ccn(-c4ccc(S(=O)(=O)NC(C)(C)C)cc4)c3n2)cc1CN1CCN(C)CC1 [Example 353]", "JAK2-dependent nuclear translocation of STAT5-GFP in U-2 OS osteosarcoma cells", "IC50", 17),
    ("C[C@@H]1CN(c2ncc(Nc3ncc4ccn(-c5cc(F)c(CN6CCS(=O)(=O)CC6)c(F)c5)c4n3)cc2Cl)C[C@H](C)N1 [Example 430]", "JAK2-dependent nuclear translocation of STAT5-GFP in U-2 OS osteosarcoma cells", "IC50", 3.6),
    ("CN(C)CCN1CCN(Cc2cc(Nc3ncc4ccn(-c5cc(F)c(CN6CCOCC6)c(F)c5)c4n3)ccn2)CC1 [Example 396]", "JAK2-dependent nuclear translocation of STAT5-GFP in U-2 OS osteosarcoma cells", "IC50", 147),
    ("CN1CCN(Cc2ccc(Nc3ncc4ccn(-c5cc(F)c(CN6CCOCC6)c(F)c5)c4n3)cn2)CC1 [Example 472]", "JAK2-dependent nuclear translocation of STAT5-GFP in U-2 OS osteosarcoma cells", "IC50", 92),
    ("Cc1ccc(Nc2ncc3ccn(-c4cc(F)c(CN5CCOCC5)c(F)c4)c3n2)cc1CN1CCN(CCN(C)C)CC1 [Example 398]", "JAK2-dependent nuclear translocation of STAT5-GFP in U-2 OS osteosarcoma cells", "IC50", 245),
    ("C[C@@H]1CN(c2ccc(Nc3ncc4ccn(-c5cc(F)c(CN6CCOC7(COC7)C6)c(F)c5)c4n3)cn2)C[C@H](C)N1 [Example 360]", "JAK2-dependent nuclear translocation of STAT5-GFP in U-2 OS osteosarcoma cells", "IC50", 7.2),
    ("Cc1cc(Nc2ncc3ccn(-c4cc(F)c(CN5CCOCC5)c(F)c4)c3n2)cnc1N1CCNC(C)(C)C1 [Example 488]", "JAK2-dependent nuclear translocation of STAT5-GFP in U-2 OS osteosarcoma cells", "IC50", 40.5),
    ("CN(C)CCN1CCN(c2ccc(Nc3ncc4ccn(-c5cc(F)c(CN6CCOCC6)c(F)c5)c4n3)cn2)CC1 [Example 465]", "JAK2-dependent nuclear translocation of STAT5-GFP in U-2 OS osteosarcoma cells", "IC50", 3.2),
    ("Cc1ccc(Nc2ncc3ccn(-c4cc(F)c(CN5CCOCC5)c(F)c4)c3n2)cc1C(=O)N1C[C@@H](C)N[C@@H](C)C1 [Example 452]", "JAK2-dependent nuclear translocation of STAT5-GFP in U-2 OS osteosarcoma cells", "IC50", 79.5),
    ("Cc1ccc(Nc2ncc3ccn(-c4cc(F)c(CN5CCOCC5)c(F)c4)c3n2)cc1CN1CCN(C=O)CC1 [Example 370]", "JAK2-dependent nuclear translocation of STAT5-GFP in U-2 OS osteosarcoma cells", "IC50", 31.3),
]

---

tested_system: GST-JAK2(808-1132) (Homo sapiens)
Construct: GST-JAK2(808-1132); purchased Invitrogen (Carlsbad, USA) #4288
method_summary: JAK2 kinase assay (Caliper mobility shift, LabChip 3000)
Type: biochemical

# molecule, IC50 (nM)
measured = [
    ("CCN(CC)C(=O)N1CCN(c2ccc(Nc3ncc4ccn(-c5ccc(S(C)(=O)=O)cc5)c4n3)cc2)CC1", 3.8),
    ("CN1CCN(Cc2ccc(Nc3ncc4ccn(-c5ccc(S(C)(=O)=O)cc5)c4n3)cc2)CC1=O", 9.3),
    ("C[C@@H]1CN(Cc2ccc(Nc3ncc4ccn(-c5cc(F)c(CN6CCOCC6)c(F)c5)c4n3)cc2)[C@@H](C)CN1 (racemic)", 5),
    ("CN(C)CCN(C(=O)c1cccc(Nc2ncc3ccn(-c4ccc(S(C)(=O)=O)cc4)c3n2)c1)c1ccccc1", 27),
]

---

Quick reference: IC50 of the listed items.
Tested on: JAK2-dependent nuclear translocation of STAT5-GFP in U-2 OS osteosarcoma cells
method_summary: STAT5 nuclear translocation assay (Cellomics), rhEpo stimulated U-2 OS STAT5-GFP cells
Assay type: cell-based
measurement_conditions: Homo sapiens, U2OS; STAT5 translocation pathway

# compound, IC50
measured = [
    ("Fc1cc(-n2ccc3cnc(Nc4ccnc(CN5CCNC(C(F)(F)F)C5)c4)nc32)cc(F)c1CN1CCOCC1 (racemic) [Example 408]", "9.2 nM"),
    ("Cc1ccc(Nc2ncc3ccn(-c4cc(F)c(CN5CCOCC5)c(F)c4)c3n2)cc1Cn1cnnc1 [Example 414]", "4.2 nM"),
    ("Fc1cc(-n2ccc3cnc(Nc4ccc(CN5CCC(F)(F)C5)cc4)nc32)cc(F)c1CN1CCOCC1 [Example 471]", "31.5 nM"),
    ("CC(C)S(=O)(=O)Nc1ccc(-n2ccc3cnc(Nc4ccc(N5C[C@@H](C)N[C@@H](C)C5)nc4)nc32)cc1 [Example 375]", "7.7 nM"),
    ("Fc1cc(-n2ccc3cnc(Nc4ccc([C@H]5COCCN5)cc4)nc32)cc(F)c1CN1CCOCC1 [Example 511]", "3.9 nM"),
    ("Fc1cc(-n2ccc3cnc(Nc4ccc(Cl)c(CN5CCNCC5)c4)nc32)cc(F)c1CN1CCOCC1 [Example 401]", "138 nM"),
    ("Cc1ccc(Nc2ncc3ccn(-c4cc(F)c(CN5CCOCC5)c(F)c4)c3n2)cc1CN1CCNC(C(F)(F)F)C1 (racemic) [Example 404]", "141 nM"),
]

---

tested_system: GST-JAK2(808-1132) (Homo sapiens)
Construct: GST-JAK2(808-1132); purchased Invitrogen (Carlsbad, USA) #4288
method_summary: JAK2 kinase assay (Caliper mobility shift, LabChip 3000)
Format: biochemical
Quick reference: IC50 of the listed items.
measure_name: IC50 (nM)

# compound, inequality_operator, recorded_measurement
measured = [
    ("COC(C)c1ccc(-n2ccc3cnc(Nc4ccc(N5CCN(C)CC5)nc4)nc32)cc1 (racemic)", "≤", 3),
    ("Cc1ccc(Nc2ncc3ccn(-c4ccc(C(=O)N5CCOCC5)cc4)c3n2)cc1C", "=", 4.3),
    ("Cc1cc(Nc2ncc3ccn(-c4ccc(C(=O)N5CCOCC5)c(Cl)c4)c3n2)ccc1F", "=", 3.4),
    ("Cc1ccc(Nc2ncc3ccn(-c4ccc(CC(=O)N5CCOCC5)cc4)c3n2)cc1", "<", 3),
    ("CS(=O)(=O)c1ccc(-n2ccc3cnc(Nc4cccc(CN5CCCCC5)c4)nc32)cc1", "<", 3),
    ("CN1CCN(C(=O)c2ccc(-n3ccc4cnc(Nc5ccc(F)cc5)nc43)cc2F)CC1", "=", 12),
    ("C[C@@H]1CN(c2ccc(Nc3ncc4ccn(-c5cc(F)c(CN6CCS(=O)(=O)CC6)c(F)c5)c4n3)cn2)C[C@H](C)N1", "≤", 3),
    ("COc1ccc(Nc2ncc3ccn(-c4ccc(S(C)(=O)=O)cc4)c3n2)cn1", "=", 20.5),
]
